tested on: HeLa cells expressing GFP-LC3; assay: GFP-LC3 puncta quantification in the presence of autophagic inhibitor 3-MA; format: cell-based, human; settings: 20 μM liensinine or 10 μM others, 3-MA 5 mM, 4 hours (FIG. 3)
parameter: compound-induced GFP-LC3 puncta formation in the presence of autophagic inhibitor (3-MA)

>>> experimentalresult("COc1ccc2cc1Oc1ccc(cc1)C[C@H]1c3cc(c(OC)cc3CCN1C)Oc1c(OC)c(OC)c(OC)c3c1[C@H](C2)N(C)CC3")
"significant reduction"
>>> experimentalresult("COc1cc2c(cc1OC)[C@@H](Cc1ccc(Oc3cc(C[C@@H]4c5cc(OC)c(OC)cc5CCN4C)ccc3O)cc1)N(C)CC2")
"significant reduction"
>>> experimentalresult("COc1cc2c(cc1OC)[C@@H](Cc1ccc(O)c(Oc3cc4c(cc3OC)CCN(C)[C@@H]4Cc3ccc(O)cc3)c1)N(C)CC2")
"significant reduction"
>>> experimentalresult("COc1ccc(C[C@@H]2c3cc(Oc4cc(C[C@@H]5c6cc(O)c(OC)cc6CCN5C)ccc4O)c(OC)cc3CCN2C)cc1")
"significant reduction"

# credit: patent US9561220B2
